assay: Inhibition of Nitric oxide synthase activity in mouse BV2 cells assessed as LPS-induced NO production after 24 hrs by Griess reaction; format: cell-based; conditions: BV-2, 24 h
pIC50: −log10 of the molar value.
Measured Quantity: pIC50

Some compounds with known pIC50 results, for comparison:
1) COC(=O)[C@@H](N)CCCNC(=N)N[N+](=O)[O-] 4.72
2) Cc1ccc(/C=C/C(=O)c2ccc(N3CCN(Cc4cc(C(=O)/C=C/c5ccc(C)o5)ccc4O)CC3)cc2)o1 5.62
3) O=C(/C=C/c1cccs1)c1ccc(N2CCN(Cc3cc(C(=O)/C=C/c4cccs4)ccc3O)CC2)cc1 5.72

a = O=C(/C=C/c1ccc2c(c1)OCO2)c1ccc(N2CCN(Cc3cc(C(=O)/C=C/c4ccc5c(c4)OCO5)ccc3O)CC2)cc1
b = COc1ccc(/C=C/C(=O)c2ccc(N3CCN(Cc4cc(C(=O)/C=C/c5ccc(OC)cc5)cc(OC)c4O)CC3)cc2)cc1
Which gives the smaller pIC50 number: a or b ? # reply format: chosen label
b
(b: 5.46, a: 5.68)

A = COc1cc(C(=O)/C=C/c2sccc2C)cc(CN2CCN(c3ccc(C(=O)/C=C/c4sccc4C)cc3)CC2)c1O
B = CC(=O)c1ccc(N2CCN(Cc3cc(C(=O)/C=C/c4ccc[nH]4)ccc3O)CC2)cc1
Return label of the item with the larger pIC50. Candidates: A , B . # respond with the chosen item's label
B

----------
test: Inhibition of Nitric oxide synthase activity in mouse BV2 cells assessed as LPS-induced NO production after 24 hrs by Griess reaction; type: cell-based; details: BV-2, 24 h
pIC50: −log10 of the molar value.
Measured Quantity: pIC50

1. Cc1ccsc1/C=C/C(=O)c1ccc(N2CCN(Cc3cc(C(=O)/C=C/c4sccc4C)ccc3O)CC2)cc1 5.12
2. O=C(/C=C/c1ccco1)c1ccc(N2CCN(Cc3cc(C(=O)/C=C/c4ccco4)ccc3O)CC2)cc1 5.77
3. COc1ccc(/C=C/C(=O)c2ccc(N3CCN(Cc4cc(C(=O)/C=C/c5ccc(OC)cc5)ccc4O)CC3)cc2)cc1 6.30
4. CC(=O)c1ccc(N2CCN(Cc3cc(C(=O)/C=C/c4cccn4C)ccc3O)CC2)cc1 5.72
5. COc1cc(C(=O)/C=C/c2ccccn2)cc(CN2CCN(c3ccc(C(=O)/C=C/c4ccccn4)cc3)CC2)c1O 5.80
6. O=C(/C=C/c1ccc(Cl)cc1Cl)c1ccc(N2CCN(Cc3cc(C(=O)/C=C/c4ccc(Cl)cc4Cl)ccc3O)CC2)cc1 4.59
7. O=C(/C=C/c1ccccc1Cl)c1ccc(N2CCN(Cc3cc(C(=O)/C=C/c4ccccc4Cl)ccc3O)CC2)cc1 4.52
8. CC(=O)c1ccc(N2CCN(Cc3cc(C(C)=O)ccc3O)CC2)cc1 5.18
9. O=C(/C=C/c1ccccc1)c1ccc(N2CCN(Cc3cc(C(=O)/C=C/c4ccccc4)ccc3O)CC2)cc1 5.55
10. COc1cc(C(=O)/C=C/c2cccs2)cc(CN2CCN(c3ccc(C(=O)/C=C/c4cccs4)cc3)CC2)c1O 5.57

a = COc1cc(C(=O)/C=C/c2ccccc2)cc(CN2CCN(c3ccc(C(=O)/C=C/c4ccccc4)cc3)CC2)c1O
b = O=C(/C=C/c1cccnc1)c1ccc(N2CCN(Cc3cc(C(=O)/C=C/c4cccnc4)ccc3O)CC2)cc1
Hi team, can someone confirm which has the larger pIC50: a or b ? Thanks. # answer = label of selected item
b

I = O=C(/C=C/c1ccccn1)c1ccc(N2CCN(Cc3cc(C(=O)/C=C/c4ccccn4)ccc3O)CC2)cc1
II = COc1cc(C(=O)/C=C/c2cccnc2)cc(CN2CCN(c3ccc(C(C)=O)cc3)CC2)c1O
Task for the reader: decide whether I or II has the larger pIC50. Pick one and reply with its label.
I
(I: 5.85, II: 5.46)
